Where do these numbers come from? They come from patent US20260242478A1.

Target: T1, PSMA Fab (SEQ ID NOs: 19, 20)
T1 construct: also called Anti-PSMA Fab; 006 PSMA Fab
Assay: clonal phage ELISA; captured biotinylated PSMA Fab pre-incubated with PSMA antigen as competitor, anti-M13-HRP detection
Where no end group is shown, it is not given here.
# note: boundary value 0.07 maps to No; Phage binding ELISA signal, Anti-PSMA Fab with PSMA antigen below it maps to Yes

Check out these entries, answers already filled in.
INSERT INTO measurements (binder, qualitative_label) VALUES
  ('DARLCKPTWMCMGL (Tested as clonal phage supernatant; not shown: pIII coat protein of the bacteriophage to which the peptide is fused) [Phage-3809 (Peptide-180 library clone, SEQ ID NO: 4125)]', 'No'),
  ('GGPMCKPVWMCQGF (Tested as clonal phage supernatant; not shown: pIII coat protein of the bacteriophage to which the peptide is fused) [Phage-3803 (Peptide-180 library clone, SEQ ID NO: 4119)]', 'No'),
  ('SFQRCEPEWMCYGF (Tested as clonal phage supernatant; not shown: pIII coat protein of the bacteriophage to which the peptide is fused) [Phage-3811 (Peptide-180 library clone, SEQ ID NO: 4127)]', 'No'),
  ('GDQMCIPLWMCEGF (Tested as clonal phage supernatant; not shown: pIII coat protein of the bacteriophage to which the peptide is fused) [Phage-3810 (Peptide-180 library clone, SEQ ID NO: 4126)]', 'No');

I'd appreciate it if you could check whether LELLCRPSWMCEGF (cysteine pairing not given here; also: displayed on phage as fusion to pIII, junction not given here, Tested as clonal phage supernatant; not shown: pIII coat protein of the bacteriophage to which the peptide is fused) [Phage-3800 (Peptide-180 library clone, SEQ ID NO: 4116)] has Phage binding ELISA signal, Anti-PSMA Fab with PSMA antigen smaller than 0.07. Yes

Does the reported Phage binding ELISA signal, Anti-PSMA Fab with PSMA antigen of the following binder sit strictly below 0.07? IRALCEPSWMCTGF (Tested as clonal phage supernatant; not shown: pIII coat protein of the bacteriophage to which the peptide is fused) [Phage-3804 (Peptide-180 library clone, SEQ ID NO: 4120)] No

Dear colleague, could you confirm whether Phage binding ELISA signal, Anti-PSMA Fab with PSMA antigen of EVLRCVPRWMCEKF (Tested as clonal phage supernatant; not shown: pIII coat protein of the bacteriophage to which the peptide is fused) [Phage-3802 (Peptide-180 library clone, SEQ ID NO: 4118)] falls below 0.07? Thanks. Yes

For this binder, is Phage binding ELISA signal, Anti-PSMA Fab with PSMA antigen lower than 0.07? LGVQCKPTWMCQGF (Tested as clonal phage supernatant; not shown: pIII coat protein of the bacteriophage to which the peptide is fused) [Phage-3808 (Peptide-180 library clone, SEQ ID NO: 4124)] No
